# Target Under Test: T1, biotinylated human recombinant IL-12Rβ2 (produced in-house) (human, UniProt Q99665 24-622, random biotinylated)
# T1 construct: Soluble recombinant protein used for panning, ELISA and BLI; also called hIL-12RB2; hIL12RB2
# T1 sequence: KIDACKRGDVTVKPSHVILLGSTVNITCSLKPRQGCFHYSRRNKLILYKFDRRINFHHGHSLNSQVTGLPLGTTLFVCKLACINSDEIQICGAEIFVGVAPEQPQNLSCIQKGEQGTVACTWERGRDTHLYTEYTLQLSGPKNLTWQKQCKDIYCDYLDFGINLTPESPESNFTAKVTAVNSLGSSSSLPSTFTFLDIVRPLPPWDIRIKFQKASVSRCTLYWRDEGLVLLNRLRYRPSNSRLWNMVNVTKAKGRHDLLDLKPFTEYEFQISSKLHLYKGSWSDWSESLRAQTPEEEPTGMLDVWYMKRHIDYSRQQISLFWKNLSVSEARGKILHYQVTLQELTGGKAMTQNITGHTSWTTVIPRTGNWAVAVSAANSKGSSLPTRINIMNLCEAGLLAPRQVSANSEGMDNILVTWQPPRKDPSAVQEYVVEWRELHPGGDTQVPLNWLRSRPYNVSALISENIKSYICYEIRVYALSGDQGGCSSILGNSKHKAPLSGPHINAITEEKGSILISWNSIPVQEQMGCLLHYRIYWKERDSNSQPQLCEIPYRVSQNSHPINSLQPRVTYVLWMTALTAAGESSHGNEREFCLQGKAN
# Protocol Text: BLI (Octet Red), periplasmic extract on biotinylated human IL-12Rβ2 on streptavidin tips, 1:1 model
Measured Endpoint: koff (s⁻¹)
Give the number; s⁻¹ is assumed, so skip it.

Below, 6 binders whose answers are already recorded.
Which koff is reported for this binder? anti-IL-12Rβ2 VHH clone 3CRH25 (clone ID 20378) (VHH, Tested as periplasmic extract; not shown: C-terminal HA tag) VHH: QVQLQESGGGLVQAGDSLRLSCTASGHTFSRYTTIGWFRQAPGKDREFVAAIRWSGDITDYADAVKGRFTISRDNVKNTVYLQMNSLNPEDTAVYYCARGYSEYGVLSRNRGLYAYWGQGTQVTVSS
0.00205

Now the same for anti-IL-12Rβ2 VHH clone 3CRHM99 (clone ID 21062) (VHH, Tested as periplasmic extract; not shown: C-terminal HA tag) VHH: QVQLQESGGGLVQPGGSLRLSCAASGISSSRLHVGWFRQSPGKEREFVAAISLSGGTQAYTDSVKGRFTISGDNVKNTAYLQMNSLRPEDTAVYYCAARERFIWTWSDLTYDYWGQGTQVTVSS
0.00634

Now the same for anti-IL-12Rβ2 VHH clone 3CAHS124 (clone ID 20400) (VHH, Tested as periplasmic extract; not shown: C-terminal HA tag) VHH: QVQLQESGGGLVQPGGSLRLSCAASGRTINAYIMGWFRQAPGKEREFVAAVSGSGGSTYYADSVKGRFTISRDNAKNTVNLQMDNLRSEDTDVYYCAATYESVYLQNPGQYDYWGQGTQVTVSS
0.00324

Now the same for anti-IL-12Rβ2 VHH clone 3CAHS142 (clone ID 20401) (VHH, Tested as periplasmic extract; not shown: C-terminal HA tag) VHH: QVQLQESGGGLVQAGESLTLSCIASGVIKDYAMGWFRQAPGKEREFVAAISWSGVSIYYADSVKGRFTISRDNAKNTVYLQMNSLEPEDTAVYYCAGTEGAYTVAGGSTFGYDMDYWGKGTQVTVSS
0.00324

Now the same for anti-IL-12Rβ2 VHH clone 3CAHS171 (clone ID 20407) (VHH, Tested as periplasmic extract; not shown: C-terminal HA tag) VHH: QVQLQESGGGLVQPGGSLRLTCVASGFPFSTHAMSWVRQPPGKGREWISAINSGGDSTDYADSVMGRFTISRDNAKNTVYLQMNSLKSEDTAAYYCAKYEDCSDYDCSSRASWGQGTQVTVSS
0.00431

Now the same for anti-IL-12Rβ2 VHH clone 3CRHS163 (clone ID 20438) (VHH, Tested as periplasmic extract; also called 3CANS142; not shown: C-terminal HA tag) VHH: QVQLQESGGGLVQPGGSLRLSCTASGFAFSTYWMYWIRQSPEKGFEWVSVVNTGGDITYYADSVKGRFTISRDNAKNTLYLQMNSLKPEDTALYYCARDRTTMSYTRTYYRGGQGTQVTVSS
0.00302

New cases:
Which koff is reported for this binder? anti-IL-12Rβ2 VHH clone 3CRHS106 (clone ID 20429) (VHH, Tested as periplasmic extract; not shown: C-terminal HA tag) VHH: QVQLQESGGGLVQPGGSLRLSCKASGFTFSTYAMSWVRQAPGKGLEWVSAVNSGGLSTDYADSVEGRFTISRDDAKNMLFLQMNSLKPEDTARYYCAKYEDCSDYMCHRDRAGYWGQGTQVTVSS
0.00355

Now the same for anti-IL-12Rβ2 VHH clone 2CRH82 (clone ID 20372) (VHH, Tested as periplasmic extract; not shown: C-terminal HA tag) VHH: QVQLQESGGGLVQAGGSLRLSCAASARTESMYAMAWFRQAPGKEREIVAGIIQSGGTTYISDYMKGRFSIDRGNAENTVYLQMDSLKPEDTAVYSCAAKVSSGTPSDIQISQSRWYDHWGQGTQVTVSS
0.00274

Now the same for anti-IL-12Rβ2 VHH clone 3CAHM11 (clone ID 21050) (VHH, Tested as periplasmic extract; not shown: C-terminal HA tag) VHH: QVQLQESGGGLVQAGGSLRLSCAASGRTFNNYAMAWFRQAPGKEREFIAAITRSDTTLYIDSVKGRFTISRDNAKNTVALQMNSLKPEDTAVYYCAAGMPYSYSDYPRDSKYDYWGRGTQVTVSS
0.00519

Now the same for anti-IL-12Rβ2 VHH clone 3CRHS54 (clone ID 20422) (VHH, Tested as periplasmic extract (P.E.) from the pMECS vector; not shown: C-terminal HA tag) VHH: QVQLQESGGGLVQPGGSLRLSCTASGSIVSIYNMDWYRQAPGNEREWVASITSSGDPYYDGSAKGRFTISRDNAKMTVYLQMNSLEPEDTAVYFCKVPTEKGNYWGQGTQVTVSS
0.00272

Now the same for anti-IL-12Rβ2 VHH clone 3CRHS51 (clone ID 20421) (VHH, Tested as periplasmic extract; also called 3CRHSS1; not shown: C-terminal HA tag) VHH: QVQLQESGGGLVQPGGSLRLSCAASGFTFSTYAMSWVRQAPGKGLEWVSAVNSGGLSTDYADSVEGRFTISRDDAKNMLFLQMNRLKPEDTARYYCAKYEDCSDYVCDRAGYWGQGTQVTVSS
0.0043
